Experiment: Inhibition of Protein phosphatase 2A
Set-up: species or system Homo sapiens
pIC50: −log10 of the molar value.

- molecule: "C[C@]1(C(=O)O)[C@@H]2CC[C@@H](O2)[C@@]1(C)C(=O)NC(=O)N1CCOCC1"
  pIC50: 6.10
- molecule: "O=C(NC(=O)Nc1ccc(N2CCOCC2)cc1)NC(=O)C1C(C(=O)O)[C@@H]2CC[C@H]1O2 (stereo not given in full)"
  pIC50: 5.10
- molecule: "O=C1OC(=O)[C@H]2[C@@H]1[C@@H]1CC[C@H]2O1"
  pIC50: 5.52
- molecule: "C[C@@]12C(=O)OC(=O)[C@]1(C)[C@H]1CC[C@@H]2O1"
  pIC50: 5.92
- molecule: "O=C(NCCN1CCOCC1)NC(=O)C1C(C(=O)O)[C@@H]2CC[C@H]1O2 (stereo not given in full)"
  pIC50: 4.37

====

Assay: Inhibition of Protein phosphatase 1
Parameters: species or system Homo sapiens
pIC50: −log10 of the molar value.
# pIC50 per entry

- compound: "O=C(NCCN1CCOCC1)NC(=O)C1C(C(=O)O)[C@@H]2CC[C@H]1O2 (stereo not given in full)"
  pIC50: 4.51
- compound: "C[C@@]12C(=O)OC(=O)[C@]1(C)[C@H]1CC[C@@H]2O1"
  pIC50: 4.96
- compound: "O=C1OC(=O)[C@H]2[C@@H]1[C@@H]1CC[C@H]2O1"
  pIC50: 5.05
- compound: "O=C(NC(=O)Nc1ccc(N2CCOCC2)cc1)NC(=O)C1C(C(=O)O)[C@@H]2CC[C@H]1O2 (stereo not given in full)"
  pIC50: 5.19
- compound: "C[C@]1(C(=O)O)[C@@H]2CC[C@@H](O2)[C@@]1(C)C(=O)NC(=O)N1CCOCC1"
  pIC50: 5.23
